- Assay Procedure: endothelial E-selectin expression blockers – imaging, HUVEC, immunofluorescence, MLSMR starter and 10KST1 sets, primary screen (AID 487);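 note: signal is fraction of cell area covered by stained E-selectin grains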
- Experimental Context: HUVEC TNFalpha-induced E-selectin immunofluorescence imaging, at 2 µM; active compounds read high
Measurement Type: inhibition (%)

Cc1cc(C(=O)NCCN2CCCCC2C)n(-c2ccccc2)n1 (centres undefined)    -39.7
CCOC(=O)C1=C(NC#N)OC(C)=C(C)C1c1ccc(O)cc1 (centres undefined)    15.8
CN1CCCN(CC(O)COCc2cccs2)CC1 (centres undefined)    -66
CCCC(CCC)C(=O)NCCN1CCOCC1    -22.1
O=C(NCCOC(=O)C1COc2ccccc2O1)C1COc2ccccc2O1 (centres undefined)    -99.1
O=S(=O)(c1ccc2c(c1)OCCO2)N1CCN(Cc2ccc3c(c2)OCO3)CC1    -24.5
C=CCn1c(CC#N)nnc1N1CCOCC1    -92
O=C1CCn2nc(-c3ccc(Cl)cc3)cc2N1    -66.1
COc1ccc(C(=O)N2CCN(C3CCC(c4ccccc4)CC3)CC2)cc1OC (centres undefined)    43.2
CCCN(CCC)C(=O)c1c(C)[nH]c(C(=O)OCC)c1C    -78.7
CCc1ccc(NC(=O)CSc2nnc(Cc3cccn3C)n2-c2ccc(OC)cc2)cc1    -54.1
CC(=NCC1CCNCC1)C1=C(O)CC(C)(C)CC1=O    12.1
COc1ccc(-n2ccnc2SCC(=O)NCc2ccc3c(c2)OCO3)cc1    -80
CC1CC(C)CN(c2ncnc3c2cnn3-c2ccc(Cl)cc2)C1 (centres undefined)    -52.4
COc1ccc(NC(=O)c2cc(C(C)C)on2)c(OC)c1    7.6
COC(=O)c1sccc1NC(=O)c1csc(C)c1    -42.1
CCOC(=O)c1cnc(C(C)(C)C)[nH]c1=O    -109
CCCCN(Cc1cc2cc(OC)ccc2[nH]c1=O)C(=O)c1ccccn1    -11.8
CN1C(=O)CC(N2CCC(C(N)=O)(N3CCCCC3)CC2)C1=O (centres undefined)    10.3
O=C(COc1ccccc1Cl)NCc1ccco1    -27.9
[N-]=[N+]=CC(=O)CC(c1ccccc1)N1C(=O)c2ccccc2C1=O (centres undefined)    -39.5
Cc1nc2c(-c3ccc(F)cc3)c(C)nn2c(C)c1CCC(=O)NC(C)CCc1ccco1 (centres undefined)    -23.2
CCCCC(O)(C(NC=O)C(=O)OC)C(F)(F)F (centres undefined)    -10.7
CCN1C(=O)CC(C(=O)Nc2ccc(F)cc2)SC1=Nc1ccc2c(c1)OCO2 (centres undefined)    1.8

###

- Study System: Voltage-gated potassium channel subunit beta-2 (Rattus norvegicus) (UniProt P62483)
- Sequence (P62483 whole entry, looked up): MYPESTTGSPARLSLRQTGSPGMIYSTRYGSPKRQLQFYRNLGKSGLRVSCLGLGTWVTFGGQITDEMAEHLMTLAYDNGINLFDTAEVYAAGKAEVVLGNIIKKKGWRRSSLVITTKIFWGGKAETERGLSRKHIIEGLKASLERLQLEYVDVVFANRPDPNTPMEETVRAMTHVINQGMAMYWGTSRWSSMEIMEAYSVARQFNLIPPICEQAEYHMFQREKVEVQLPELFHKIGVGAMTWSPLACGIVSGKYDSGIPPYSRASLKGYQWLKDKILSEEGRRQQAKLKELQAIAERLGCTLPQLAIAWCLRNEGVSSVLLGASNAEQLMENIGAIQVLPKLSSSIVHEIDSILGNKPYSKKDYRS
- Assay Procedure: inhibitors of rat Kvbeta2 reductase activity – biochemical, NADPH fluorescence, primary screen (AID 622);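 note: slope of raw intensity against log time taken from 70 to 1610 s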
- Experimental Context: recombinant KvBeta, 4-cyanobenzaldehyde reduction, at 10 µM, active compounds read high
Listing of recorded fluorescence slope by entry.
Measurement Type: fluorescence slope

Cc1ccc(Nc2nc(N)nc(CN3CCCCCC3)n2)cc1    -0.449
Cc1noc(C)c1CSc1nnc2n(-c3ccccc3)c(=O)c3ccccc3n12    -0.411
CCOC(=O)C1=C(C)N(C)C(=O)NC1c1cccc(O)c1 (stereo unspecified)    -0.259
O=C(CN1C(=O)NC2(CCCCC2)C1=O)Nc1ccc(S(=O)(=O)N2CCOCC2)cc1    -0.49
Cc1ccc(N=C2NC(=O)CS2)c(C)c1    -0.47
C=CCn1c(SCc2cccc(C#N)c2)nnc1-c1ccccc1O    -0.574
